biological target: Apelin receptor (Homo sapiens, UniProt P35414); assay: Agonist activity at APJ receptor (unknown origin) expressed in CHO cells co-expressing with Calphaq16 assessed as calcium mobilization; format: functional, cell-based; conditions: read-out: EC50
Sequence (P35414 whole entry): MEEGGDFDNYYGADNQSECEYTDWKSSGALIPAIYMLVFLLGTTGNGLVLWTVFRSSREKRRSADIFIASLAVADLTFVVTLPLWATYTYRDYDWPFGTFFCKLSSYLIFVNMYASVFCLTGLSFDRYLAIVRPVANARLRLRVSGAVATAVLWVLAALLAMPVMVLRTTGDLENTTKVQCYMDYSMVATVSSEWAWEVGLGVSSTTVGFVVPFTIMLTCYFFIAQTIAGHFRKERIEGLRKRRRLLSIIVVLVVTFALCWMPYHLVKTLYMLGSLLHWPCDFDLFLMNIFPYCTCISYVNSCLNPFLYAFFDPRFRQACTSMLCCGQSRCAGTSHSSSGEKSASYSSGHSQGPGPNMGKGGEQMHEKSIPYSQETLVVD
Square brackets hold non-standard residues; d marks the D form. Peptide text beside a SMILES is read from it. hPhe = N[C@@H](CCc1ccccc1)C(=O)O; Nle = CCCC[C@H](N)C(=O)O; Aoc = NCCCCCCCC(=O)O
quantity_kind: EC50 (nM)

# compound, assay_result
rows = [
    ("CCCC[C@H](NC(=O)[C@@H]1CCCN1C(=O)[C@H](CCCNC(=N)N)NC(C)=O)C(=O)N[C@@H](CCc1ccccc1)C(=O)N[C@@H](C)C(=O)N[C@@H](C)C(=O)N[C@@H](CCCCN)C(=O)NCC(=O)N1CCC[C@H]1C(=O)N[C@@H](CC(C)C)C(N)=O (Ac-RP[Nle][hPhe]AAKGPL-NH2)", 73),
]

A = CCCC[C@H](NC(=O)[C@H](C)NC(=O)[C@H](C)NC(=O)[C@H](CC(C)C)NC(=O)[C@H](CCCC)NC(=O)[C@@H]1CCCN1C(=O)[C@H](CCCNC(=N)N)NC(C)=O)C(=O)NCC(=O)N1CCC[C@H]1C(=O)N[C@@H](CC(C)C)C(N)=O (Ac-RP[Nle]LAA[Nle]GPL-NH2)
B = CCCC[C@H](NC(=O)[C@@H]1CCCN1C(=O)[C@H](CCCNC(=N)N)NC(C)=O)C(=O)NCCCCCCCC(=O)N[C@@H](C)C(=O)N[C@@H](C)C(=O)N[C@@H](CCCCN)C(=O)NCC(=O)N1CCC[C@H]1C(=O)N[C@@H](CC(C)C)C(N)=O (Ac-RP[Nle][Aoc]AAKGPL-NH2)
Sort A and B by EC50 descending and give the first. Please indicate the selected item by its label.
B
(B: 539 nM, A: 33 nM)
